// data source = patent US20160046618A1

Molecular target: human recombinant BACE2 (Homo sapiens (Human), UniProt Q9Y5Z0)
Sequence (Q9Y5Z0 63-518): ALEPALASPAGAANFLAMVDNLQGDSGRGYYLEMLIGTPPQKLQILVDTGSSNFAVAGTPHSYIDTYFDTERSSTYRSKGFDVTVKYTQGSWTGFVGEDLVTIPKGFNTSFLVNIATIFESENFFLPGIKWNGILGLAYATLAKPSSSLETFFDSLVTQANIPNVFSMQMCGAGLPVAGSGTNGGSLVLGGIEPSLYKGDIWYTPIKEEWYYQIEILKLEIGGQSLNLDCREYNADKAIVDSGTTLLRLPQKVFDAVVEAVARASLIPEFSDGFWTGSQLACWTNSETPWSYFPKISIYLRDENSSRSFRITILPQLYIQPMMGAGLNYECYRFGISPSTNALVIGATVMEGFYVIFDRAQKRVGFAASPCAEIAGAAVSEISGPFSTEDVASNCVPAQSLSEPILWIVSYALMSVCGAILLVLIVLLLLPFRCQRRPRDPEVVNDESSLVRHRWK
Test: In vitro enzymatic BACE2 FRET assay
Assay type: biochemical
Conditions: BACE2 FRET enzyme assay; read-out: IC50 IP (μM) BACE2 enzyme
This listing pairs compounds with measured IC50.
State just the number; it will be interpreted in µM.

Sample answers from the record:
• COC[C@]12C[C@H]1[C@@](CF)(c1cc(Nc3nccc4cc(C#N)cnc34)cc(F)c1F)N=C(N)S2 = 0.00187
• C[C@]1(c2cc(Nc3ncnc4cc(Cl)cnc34)cc(F)c2F)N=C(N)S[C@H]2C[C@H]21 = 0.0136
• N#Cc1cnc2c(Nc3ccc(F)c([C@@]4(CF)N=C(N)S[C@H]5C[C@H]54)c3)ncnc2c1 = 0.0983
• NC1=N[C@](CF)(c2cc(Nc3nccc4nc(C(F)(F)F)cnc34)ccc2F)C2C[C@@H]2S1 (stereo in doubt) = 0.271
• C[C@]1(c2cc(NC(=O)c3ccc(Cl)cn3)cnc2F)N=C(N)S[C@@]2(CF)C[C@H]21 = 0.0032

Ask: // query IC50 value for entry C#CCOc1cnc(C(=O)Nc2ccc(F)c([C@@]3(CF)N=C(N)S[C@@]4(CO)C[C@H]43)c2)cn1
Result: 0.0156

Ask: // query IC50 value for entry NC1=N[C@](CF)(c2cc(NC(=O)c3ccc(Cl)cn3)ccc2F)[C@H]2C[C@@]2(CO)S1
Result: 0.0039

* * *

Target: human recombinant BACE2 (Homo sapiens (Human))
Test: In vitro enzymatic BACE2 FRET assay
Assay type: biochemical
Details: read-out: IC50 IP (μM) BACE2 enzyme
QUANTITY NAME: log10 IC50 (log10 of the value in µM)
Hi team, quick reminder: these entries are log10 of IC50 (µM).

• C[C@]1(c2cc(Nc3nccc4nc(OCc5ncccn5)cnc34)cc(F)c2F)N=C(N)S[C@@]2(C(F)F)C[C@@H]12 [Example 884] = -0.89
• Cc1nnc(COc2cnc3c(Nc4cc(F)c(F)c([C@@]5(C)N=C(N)S[C@@]6(C(F)F)C[C@@H]56)c4)nccc3n2)s1 [Example 889] = 0.15

Ask: // query log10 IC50 value for entry CCOC[C@]12C[C@H]1[C@@](CF)(c1cc(NC(=O)c3ncc(C#N)cc3C)ccc1F)N=C(N)S2 [Example 715]
Result: -2.06

* * *

Molecular target: Recombinant Cat D (Homo sapiens (Human))
Sequence (P07339 65-412): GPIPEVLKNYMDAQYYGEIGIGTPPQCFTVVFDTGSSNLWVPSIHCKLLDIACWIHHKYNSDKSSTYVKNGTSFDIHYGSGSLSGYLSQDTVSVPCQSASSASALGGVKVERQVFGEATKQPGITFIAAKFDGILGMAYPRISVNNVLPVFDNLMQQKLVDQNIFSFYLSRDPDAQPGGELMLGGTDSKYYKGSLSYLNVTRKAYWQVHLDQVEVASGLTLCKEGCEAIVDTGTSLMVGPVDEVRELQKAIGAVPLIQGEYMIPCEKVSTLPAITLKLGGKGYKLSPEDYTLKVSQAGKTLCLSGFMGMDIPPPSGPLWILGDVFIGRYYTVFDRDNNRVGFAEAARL
Assay: In vitro enzymatic Cathepsin D (Cat D) FRET assay
Assay type: biochemical
Details: read-out: IC50 IP (μM) CatD
Labelling field: enter 1.0 if recorded IC50 is less than 400 µM. Enter 0.0 if it equals or exceeds that cut-off.

For orientation, consider the following solved cases.
* C#CCOc1cnc(C(=O)Nc2ccc(F)c([C@@]3(C)N=C(N)S[C@@]4(COC)C[C@H]43)c2)c(C)n1 | 0.0
* C#CCOc1cnc2c(Nc3cc(F)c(F)c([C@@]4(C)N=C(N)S[C@@]5(C(N)=O)C[C@H]54)c3)nccc2n1 | 0.0
* NC1=N[C@](CF)(c2cc(NC(=O)c3ccc(Cl)cn3)ccc2F)[C@@H]2[C@H]3CSC[C@]32S1 (mixture of isomers) | 1.0
* C#C[C@H](C)Oc1cnc(C(=O)Nc2ccc(F)c([C@@]3(C)N=C(N)S[C@@]4(C(=O)NC5CC5)C[C@H]43)c2)cn1 | 1.0
* N#CCC[C@]12C[C@H]1[C@@](CF)(c1cc(NC(=O)c3ccc(Cl)cn3)ccc1F)N=C(N)S2 | 1.0
* C#CCOc1cnc(C(=O)Nc2ccc(F)c([C@@]3(C)N=C(N)S[C@@]4([C@H](O)C(F)(F)F)C[C@H]43)c2)cn1 | 1.0

Ask: IC50 strictly < 400 µM for this compound? C#CCOc1cnc2c(Nc3ccc(F)c([C@@]4(C)N=C(N)S[C@@]5(C(=O)NC6CC6)C[C@H]54)c3)nccc2n1
Result: 1.0

Ask: IC50 strictly < 400 µM for this compound? C[C@@H](O)[C@]12C[C@H]1[C@@](C)(c1cc(Nc3ncnc4cc(C#N)cnc34)cc(F)c1F)N=C(N)S2
Result: 1.0
